# System: SK-MEL-5 melanoma
# Experimental Protocol: NCI tumour cell line growth inhibition, 48 h; in the data active = GI50 below about 0.43 µM; inactive = the rest
Give your call using only these classes: active, inactive

For orientation, consider the following solved cases.
In [3]: df
Out[3]:
                                   molecule  assigned_label
0  C=C1C(=O)O[C@H]2[C@H]1CC/C(COC(=O)NCc1ccc(Cn3c(=O)sn(-c4ccccc4)c3=O)cc1)=C\CC[C@@]1(C)O[C@@H]21        inactive
1  C[C@@H]1COCCN1c1cc(C2(O)C[C@H]3CC[C@@H](C2)O3)c2cnn(-c3ccn[nH]3)c2n1 (stereo not given in full)          active
2  Nc1ncc(-c2cccc(S(N)(=O)=O)c2)c2scc(-c3ccc(F)c(Cl)c3)c12        inactive
3          CN(C)CCCn1c(-c2nonc2N)nc2cnccc21        inactive
4        CC#Cc1nc(Nc2cc(C)[nH]n2)c2ccccc2n1        inactive

Called result for CN(C)/N=N/c1nc[nH]c1C(N)=O
inactive

Called result for CC(C)(C)c1ccc(NS(=O)(=O)c2ccc3nc(NC(=O)c4cnccn4)[nH]c3c2)cc1
inactive

Called result for Cc1ccc(-c2cc(O)c(-c3ccc(C)cc3C)cc2O)c(C)c1
inactive

Called result for CCN(CC)c1ccc(/C=C/C=C2\NC(=O)NC2=O)cc1
inactive

Called result for CC1=NN(c2nc(N)nc(/C=C\c3ccc([N+](=O)[O-])s3)n2)C(C)(C)C1
inactive

----------
# Test system: MDA-MB-231 breast
# Experimental Protocol: NCI tumour cell line growth inhibition, 48 h
Quantity: TGI (µM)
Give bare numbers, in µM.

In [3]: df
Out[3]:
                                   compound       study_target  units_symbol  number
0  CCCCCn1c(C)cc(/C=C\c2ccc3cc(C)ccc3[n+]2C)c1C  MDA-MB-231 breast            µM    1.71

Parameter requested: TGI. Apply to each item below.
1. O=C(O)Cn1cc([N+](=O)[O-])c(=O)c2ccccc21
2. COc1ccc(-c2nn(-c3ccc(NC(=O)Nc4ccc(Cl)c(C(F)(F)F)c4)cc3)cc2-c2ccncc2)cc1Cl
3. CCCCCCCCCCCCCC(=O)N(CCCCCCCCC)CC(O)C(O)C(OC1OC(CO)C(O)C(O)C1O)C(O)CO (configuration not stated)

32.9
2.67
37.2

Parameter requested: TGI. Apply to each item below.
1. O=C(c1ccccc1)c1c(C(F)(F)F)n([O-])c2ccc(C(F)(F)F)cc2[n+]1=O
2. C=C(C(=O)O[C@H]1C(=O)C2=C(C)CCC3C(=C)C(=O)O[C@@H]3C2[C@]1(C)O)C1CC[C@]2(C)CCCC(=C)[C@H]2C1 (some centres not stated)

1. 0.354
2. 13.8

----------
Could you please report measured GI50 for the items listed next?
# Test system: KM12 colon
# Experimental Protocol: NCI tumour cell line growth inhibition, 48 h

Observe how each entry below is paired with its result.
>>> df
                              record_smiles    result
0          CN(C)CCCn1c(-c2nonc2N)nc2cnccc21   > 25 µM
1  CC1=NN(c2nc(N)nc(/C=C\c3ccc([N+](=O)[O-])s3)n2)C(C)(C)C1  > 100 µM
2  N.N.O=P([O-])([O-])C1(P(=O)([O-])[O-])CCCCCN1.[Pt+2]  > 100 µM
3                 Oc1ccc(N=Nc2ccccn2)c(O)c1  0.699 µM
4    CCN(CC)c1ccc(/C=C/C=C2\NC(=O)NC2=O)cc1   1.85 µM

Moving on to another compound below.
I'd like to know its GI50. The compound in question is Cn1cc(C2=C(N3CCOCC3)C(=O)NC2=O)c2ccccc21
> 25 µM

----------
# Tested on: K-562 leukemia
# Experimental Protocol: NCI tumour cell line growth inhibition, 48 h
Could you please report measured TGI for the items listed next?

Compound	Result
COc1ccc(Nc2nc(N)c(C(=O)c3cccs3)s2)cc1	> 100 µM

Parameter requested: TGI. Apply to each item below.
1. C/C=C(/C)C(=O)O[C@H]1[C@H](O)CC(c2ccc3c(c2O)C(O)=C2C(=O)C4(OC)C(O)=C(C(N)=O)C(=O)[C@H](CC(=O)c5ccccc5O)C4CC2[C@@]3(C)OC)O[C@@H]1C (stereo partly specified)
2. O=C(N/N=C/c1cc(Br)cc(Br)c1[O-])c1ccccc1O.O=C(N/N=C/c1cc(Br)cc(Br)c1[O-])c1ccccc1O.[Ni+2]

1: 10.7 µM; 2: 4.88 µM

----------
Could you please report measured TGI for the items listed next?
# Test system: ACHN renal
# Experimental Protocol: NCI tumour cell line growth inhibition, 48 h

Parameter requested: TGI. Apply to each item below.
1. NC(CSSCC(N)Cc1ccccc1)Cc1ccccc1 (stereo unspecified)
2. CC(=O)N/C(=C\c1ccc(Cc2nc3c([nH]2)C(=O)c2ccccc2C3=O)cc1)c1nc2c([nH]1)C(=O)c1ccccc1C2=O
3. COc1cc(-c2csc(NC(=O)Nc3cc(Cl)cc(Cl)c3)n2)cc(OC)c1OC
4. COc1ccc(-c2nn(-c3ccc(NC(=O)Nc4ccc(Cl)c(C(F)(F)F)c4)cc3)cc2-c2ccncc2)cc1Cl
5. Oc1ccc(N=Nc2ccccn2)c(O)c1
6. Cc1ccc(N=C2C(=Nc3ccc(C)cc3)N(c3ccc(C)cc3)C(=S)N2C(=O)c2ccccc2)cc1
7. Cc1ccc(C(=O)CC2=Nc3nnc(CCCCCCCc4nnc5n4C(=O)C(CC(=O)c4ccc(C)cc4)=N5)n3C2=O)cc1

["> 100 µM", "> 100 µM", "3.15 µM", "5.27 µM", "> 100 µM", "> 100 µM", "> 100 µM"]

Parameter requested: TGI. Apply to each item below.
1. CCCCCn1c(C)cc(/C=C\c2ccc3cc(C)ccc3[n+]2C)c1C
2. CCC(NC1=NCCO1)c1cccs1 (stereo unspecified)
3. Cc1cccc(Cc2cnc(NC(=O)CCc3ccc(C)o3)s2)c1
4. CC1=C(C)C(=O)C(C2=CC(=O)C=CC2=O)=C(C2=CC(=O)C=CC2=O)C1=O
5. COc1ccc(Cn2cc3c(c2-c2cc(OC)c(OC)c(OC)c2)CCc2cnoc2-3)cc1
6. O=C(O)CCC(NC(=O)c1ccc(Nc2nc3cc(C(F)(F)F)ccc3nc2C(=O)O)cc1)C(=O)O (stereo unspecified)

1.15 µM
29.4 µM
> 100 µM
> 100 µM
> 100 µM
> 100 µM

Parameter requested: TGI. Apply to each item below.
1. O=C1C(=Cc2ccc(Cl)c(Cl)c2)C([O-])=C([P+](c2ccccc2)(c2ccccc2)c2ccccc2)C([O-])=C1[P+](c1ccccc1)(c1ccccc1)c1ccccc1
2. CCOc1ccc2c(c1)c(=O)c1c(NCCN(CC)CC)ccc3nnn2c31
3. C/C=C(/C)C(=O)O[C@H]1[C@H](O)CC(c2ccc3c(c2O)C(O)=C2C(=O)C4(OC)C(O)=C(C(N)=O)C(=O)[C@H](CC(=O)c5ccccc5O)C4CC2[C@@]3(C)OC)O[C@@H]1C (stereo partly specified)
4. Cc1ccc(NC(=O)CSC(N)=O)cc1C
5. CN(C)CCCNCc1cccc2ccccc12
6. O=C(NC(=S)Nc1cc(Cl)ccc1O)c1cccc(Br)c1

["9.26 µM", "> 56.1 µM", "3.96 µM", "> 100 µM", "> 100 µM", "> 100 µM"]

Parameter requested: TGI. Apply to each item below.
1. CCCCCCCCCCCCCCCCCC(=O)Nc1ccn(C2OC(CO)C(O)C2O)c(=O)n1 (stereo unspecified)
2. COc1cc(Br)c(CC2C3=C(CCN2C(=O)C2CCC2)CC(=O)CC3)cc1O (stereo unspecified)

["> 100 µM", "86.9 µM"]

----------
# Tested on: SF-539 CNS
# Experimental Protocol: NCI tumour cell line growth inhibition, 48 h; in the data active = GI50 below about 0.43 µM; inactive = the rest
Give your call using only these classes: class 1 = active, class 0 = inactive

For orientation, consider the following solved cases.
In [3]: df
Out[3]:
                                   compound  assigned_label
0  Nc1ncc(-c2cccc(S(N)(=O)=O)c2)c2scc(-c3ccc(F)c(Cl)c3)c12         class 0
1  C=CC(COC(c1ccccc1)(c1ccccc1)c1ccccc1)N(CC)CC (stereo not given)         class 0
2  O=C1OCC2=C1C(c1ccccc1)c1cc3c(cc1N2CCO)OCCO3 (stereo not given)         class 1
3  Cn1cc(C2=C(N3CCOCC3)C(=O)NC2=O)c2ccccc21         class 0

// switching to the query compound
Called result for CC1(C)C(=O)/C(=C\c2cccnc2)C[C@]2(C)[C@H]3CC[C@@H]4[C@@H](C(=O)/C=C/c5ccncc5)CC[C@@]4(C)[C@]3(C)CC[C@@H]12
class 0
